# Test system: PC-3
# assay_text: Antiproliferative activity against human PC-3 cells assessed as cell viability incubated for 72 hrs by MTT assay
# Assay type: functional, cell-based
# condition_details: PC-3, 72 h
pIC50: −log10 of the molar value.
Documented pIC50 across a set of compounds
assay_readout: pIC50

| smi | measured_result |
| --- | --- |
| CN(c1ccccc1)c1nc(/C=C/c2ccccc2)nc2ccccc12 | < 5.00 |
| CN(c1ccc(OC(F)(F)F)cc1)c1nc(/C=C/c2ccccc2)nc2ccccc12 | < 5.00 |
| COc1cccc(OC)c1N(C)c1nc(/C=C/c2ccccc2)nc2ccccc12 | < 5.00 |

Where do these numbers come from? They come from ChEMBL document CHEMBL6092217.
